Hello, the source for this data is patent US3941850A, in case you need it.

Provide the reported Maximum Protection of each item.
method summary: Antioxidant evaluation in cis-polyisoprene (IR carbonyl band, film in oven)
condition context: 130°C oven, 0.100 g antioxidant, until carbonyl band exceeded 6 cm
Hi! Could you send only the number? It should be in h, unit omitted.

query: So what's the measured Maximum Protection for this one? Oc1c(Cc2ccccc2)cc(C(c2ccc(C(c3cc(Cc4ccccc4)c(O)c(Cc4ccccc4)c3)c3cc(Cc4ccccc4)c(O)c(Cc4ccccc4)c3)cc2)c2cc(Cc3ccccc3)c(O)c(Cc3ccccc3)c2)cc1Cc1ccccc1 [Test 21]
result: 7

query: So what's the measured Maximum Protection for this one? CC(C)c1cc(C(c2ccc(C(c3cc(C(C)C)c(O)c(C(C)C)c3)c3cc(C(C)C)c(O)c(C(C)C)c3)cc2)c2cc(C(C)C)c(O)c(C(C)C)c2)cc(C(C)C)c1O [Test 16]
result: 7

query: So what's the measured Maximum Protection for this one? Cc1cc(O)c(C(C)(C)C)cc1C(c1ccc(C(c2cc(C(C)(C)C)c(O)cc2C)c2cc(C(C)(C)C)c(O)cc2C)cc1)c1cc(C(C)(C)C)c(O)cc1C [Test 15]
result: 6

query: So what's the measured Maximum Protection for this one? CC(C)(C)c1cc(C(c2ccc(C(c3cc(C(C)(C)C)c(O)c(C(C)(C)C)c3)c3cc(C(C)(C)C)c(O)c(C(C)(C)C)c3)cc2)c2cc(C(C)(C)C)c(O)c(C(C)(C)C)c2)cc(C(C)(C)C)c1O [Test 19]
result: 16

query: So what's the measured Maximum Protection for this one? CC(C)Cc1cc(C(c2ccc(C(c3cc(CC(C)C)c(O)c(CC(C)C)c3)c3cc(CC(C)C)c(O)c(CC(C)C)c3)cc2)c2cc(CC(C)C)c(O)c(CC(C)C)c2)cc(CC(C)C)c1O [Test 18]
result: 6

query: So what's the measured Maximum Protection for this one? CCCCC(CC)Cc1cc(C(c2ccc(C(c3cc(CC(CC)CCCC)c(O)c(CC(CC)CCCC)c3)c3cc(CC(CC)CCCC)c(O)c(CC(CC)CCCC)c3)cc2)c2cc(CC(CC)CCCC)c(O)c(CC(CC)CCCC)c2)cc(CC(CC)CCCC)c1O (centres unmarked) [Test 20]
result: 3

query: So what's the measured Maximum Protection for this one? Cc1ccc(Cc2cc(C(c3ccc(C(c4cc(Cc5ccc(C)cc5)c(O)c(Cc5ccc(C)cc5)c4)c4cc(Cc5ccc(C)cc5)c(O)c(Cc5ccc(C)cc5)c4)cc3)c3cc(Cc4ccc(C)cc4)c(O)c(Cc4ccc(C)cc4)c3)cc(Cc3ccc(C)cc3)c2O)cc1 [Test 22]
result: 6

query: So what's the measured Maximum Protection for this one? Cc1cc(C(c2ccc(C(c3cc(C)c(O)c(C(C)(C)C)c3)c3cc(C)c(O)c(C(C)(C)C)c3)cc2)c2cc(C)c(O)c(C(C)(C)C)c2)cc(C(C)(C)C)c1O [Test 14]
result: 13

query: So what's the measured Maximum Protection for this one? CCC(C)c1cc(C(c2ccc(C(c3cc(C(C)CC)c(O)c(C(C)CC)c3)c3cc(C(C)CC)c(O)c(C(C)CC)c3)cc2)c2cc(C(C)CC)c(O)c(C(C)CC)c2)cc(C(C)CC)c1O (centres unmarked) [Test 17]
result: 7

query: So what's the measured Maximum Protection for this one? Cc1cc(C(c2ccc(C(c3cc(C)c(O)cc3C)c3cc(C)c(O)cc3C)cc2)c2cc(C)c(O)cc2C)c(C)cc1O [Test 13]
result: 3

query: So what's the measured Maximum Protection for this one? Cc1cc(C(c2ccc(C(c3cc(C)c(O)c(C)c3)c3cc(C)c(O)c(C)c3)cc2)c2cc(C)c(O)c(C)c2)cc(C)c1O [Test 12]
result: 8

---

method summary: Solubility in ethanol and toluene
Type: physicochemical
condition context: ethanol, 27°C
Provide the reported Solubility, Ethanol of each item.

query: So what's the measured Solubility, Ethanol for this one? Cc1cc(C(c2ccc(C(c3cc(C)c(O)c(C(C)(C)C)c3)c3cc(C)c(O)c(C(C)(C)C)c3)cc2)c2cc(C)c(O)c(C(C)(C)C)c2)cc(C(C)(C)C)c1O [Test 30]
result: > 9 g/100 ml

query: So what's the measured Solubility, Ethanol for this one? Cc1cc(C(c2ccc(C(c3cc(C)c(O)c(C)c3)c3cc(C)c(O)c(C)c3)cc2)c2cc(C)c(O)c(C)c2)cc(C)c1O [Test 28]
result: 3 g/100 ml

query: So what's the measured Solubility, Ethanol for this one? Cc1cc(C(c2ccc(C(c3cc(C)c(O)cc3C)c3cc(C)c(O)cc3C)cc2)c2cc(C)c(O)cc2C)c(C)cc1O [Test 29]
result: < .14 g/100 ml

query: So what's the measured Solubility, Ethanol for this one? Cc1cc(O)c(C(C)(C)C)cc1C(c1ccc(C(c2cc(C(C)(C)C)c(O)cc2C)c2cc(C(C)(C)C)c(O)cc2C)cc1)c1cc(C(C)(C)C)c(O)cc1C [Test 31]
result: > 9 g/100 ml
